Quick list: EAD, number of observations/total well numbers per entry.
Test system: hiPSC-CMs (iCell-Cardiomyocytes^2)
protocol_conditions: 3 µM; 48h

Previously resolved entries follow.
| molecule | system_under_test | reported_value |
| --- | --- | --- |
| CC(C)(Sc1cc(C(C)(C)C)c(O)c(C(C)(C)C)c1)Sc1cc(C(C)(C)C)c(O)c(C(C)(C)C)c1 [Probucol] | hiPSC-CMs (iCell-Cardiomyocytes^2) | 0/5 |
| COc1cccc2c1C(=O)c1c(O)c3c(c(O)c1C2=O)C[C@@](O)(C(=O)CO)C[C@@H]3O[C@H]1C[C@H](N)[C@H](O)[C@H](C)O1 [Doxorubicin] | hiPSC-CMs (iCell-Cardiomyocytes^2) | 0/5 |
| COc1nc(N)nc2c1ncn2[C@@H]1O[C@H](COP(=O)(N[C@@H](C)C(=O)OCC(C)(C)C)Oc2cccc3ccccc23)[C@@H](O)[C@@]1(C)O (stereo partly drawn) [BMS-986094] | hiPSC-CMs (iCell-Cardiomyocytes^2) | 0/5 |
| C#Cc1cccc(Nc2ncnc3cc(OCCOC)c(OCCOC)cc23)c1 [Erlotinib] | hiPSC-CMs (iCell-Cardiomyocytes^2) | 0/5 |
| N=C(N)c1ccc(OCCCCCOc2ccc(C(=N)N)cc2)cc1 [Pentamidine] | hiPSC-CMs (iCell-Cardiomyocytes^2) | 0/6 |

Attention now turns to another entry.
Reported EAD, number of observations/total well numbers ( COc1cc2c(Nc3ccc(Br)cc3F)ncnc2cc1OCC1CCN(C)CC1 [Vandetanib] ) = 0/5

----------
System: hiPSC-CMs (iCell-Cardiomyocytes^2)
protocol_conditions: 1 µM, 2h
observable: Flat T-wave-like, number of observations/total well numbers

| compound | reported_value |
| --- | --- |
| C#Cc1cccc(Nc2ncnc3cc(OCCOC)c(OCCOC)cc23)c1 | 0/5 |

Noted for COc1nc(N)nc2c1ncn2[C@@H]1O[C@H](COP(=O)(N[C@@H](C)C(=O)OCC(C)(C)C)Oc2cccc3ccccc23)[C@@H](O)[C@@]1(C)O (stereo partly shown) : its Flat T-wave-like, number of observations/total well numbers reads 1/5

Kindly note the recorded Flat T-wave-like, number of observations/total well numbers for CC(C)(Sc1cc(C(C)(C)C)c(O)c(C(C)(C)C)c1)Sc1cc(C(C)(C)C)c(O)c(C(C)(C)C)c1 , which is 0/4

Query N=C(N)c1ccc(OCCCCCOc2ccc(C(=N)N)cc2)cc1 yields Flat T-wave-like, number of observations/total well numbers of 0/6

----------
System: hiPSC-CMs (iCell-Cardiomyocytes^2)
measurement_description: MEA impedance (cytotoxicity readout) in hiPSC-CMs
protocol_conditions: 0.1 µM, 72h
observable: Imp (impedance), % change from baseline (%)
Give the value in % but do not write % after it.

| molecule | units_label | Imp (impedance), % change from baseline |
| --- | --- | --- |
| N=C(N)c1ccc(OCCCCCOc2ccc(C(=N)N)cc2)cc1 [Pentamidine] | % | -6 |

Short answer for Cc1cn(-c2cc(NC(=O)c3ccc(C)c(Nc4nccc(-c5cccnc5)n4)c3)cc(C(F)(F)F)c2)cn1 [Nilotinib] : Imp (impedance), % change from baseline was -6

Entry under test: COc1cc2c(Nc3ccc(Br)cc3F)ncnc2cc1OCC1CCN(C)CC1 [Vandetanib] . Its Imp (impedance), % change from baseline was -9

----------
Test system: hiPSC-CMs (iCell-Cardiomyocytes^2)
protocol_conditions: 0.1 µM, 48h
Protocol: Cells were seeded according to the instructions of the cell provider, in fibronectin-coated 48-well MEA plates (Axion Cytoview Plates, M768-tMEA-48B) at a density suited to form a monolayer (i.e., 50 K/well) and maintained in culture in a stage incubator (37°C, 5% CO2). […] The potential presence of various arrhythmic events was evaluated and noted during the data analysis. […]
# BR (beating rate), % change from baseline per entry
// units = %; emit number, no label

For orientation, consider the following solved cases.
| compound | units_label | reported_value |
| --- | --- | --- |
| COc1cc2c(Nc3ccc(Br)cc3F)ncnc2cc1OCC1CCN(C)CC1 [Vandetanib] | % | -14 |
| O=C(O)COCCN1CCN(C(c2ccccc2)c2ccc(Cl)cc2)CC1 (centres unmarked) [Cetirizine] | % | -1 |
| N=C(N)c1ccc(OCCCCCOc2ccc(C(=N)N)cc2)cc1 [Pentamidine] | % | -4 |
| COc1cccc2c1C(=O)c1c(O)c3c(c(O)c1C2=O)C[C@@](O)(C(=O)CO)C[C@@H]3O[C@H]1C[C@H](N)[C@H](O)[C@H](C)O1 [Doxorubicin] | % | 26 |

With those in mind, consider the next compound.
According to the records, this compound CCN(CC)CCNC(=O)c1c(C)[nH]c(/C=C2\C(=O)Nc3ccc(F)cc32)c1C [Sunitinib] displays BR (beating rate), % change from baseline of -19

----------
FPD (field-potential duration), % change from baseline: recorded values
System: hiPSC-CMs (iCell-Cardiomyocytes^2)
protocol_conditions: 0.1 µM, 96h
Numbers only here, please. The scale is %.

Some solved entries appear below for comparison.
| compound | system_under_test | reported_value |
| --- | --- | --- |
| N=C(N)c1ccc(OCCCCCOc2ccc(C(=N)N)cc2)cc1 | hiPSC-CMs (iCell-Cardiomyocytes^2) | 9.2 |
| O=C(O)COCCN1CCN(C(c2ccccc2)c2ccc(Cl)cc2)CC1 (centres unmarked) | hiPSC-CMs (iCell-Cardiomyocytes^2) | 8.9 |
| CCN(CC)CCNC(=O)c1c(C)[nH]c(/C=C2\C(=O)Nc3ccc(F)cc32)c1C | hiPSC-CMs (iCell-Cardiomyocytes^2) | 49 |

get_value(item= COc1cccc2c1C(=O)c1c(O)c3c(c(O)c1C2=O)C[C@@](O)(C(=O)CO)C[C@@H]3O[C@H]1C[C@H](N)[C@H](O)[C@H](C)O1 , readout=FPD (field-potential duration), % change from baseline) returns -11.7

Entry Cc1cn(-c2cc(NC(=O)c3ccc(C)c(Nc4nccc(-c5cccnc5)n4)c3)cc(C(F)(F)F)c2)cn1 ; FPD (field-potential duration), % change from baseline = 19.6

----------
System: hiPSC-CMs (iCell-Cardiomyocytes^2)
protocol_conditions: 0.1 µM, 96h
# Cessation of beating, number of observations/total well numbers listing for each entry below

| molecule | reported_value |
| --- | --- |
| Cc1cn(-c2cc(NC(=O)c3ccc(C)c(Nc4nccc(-c5cccnc5)n4)c3)cc(C(F)(F)F)c2)cn1 | 0/5 |
| COc1cc2c(Nc3ccc(Br)cc3F)ncnc2cc1OCC1CCN(C)CC1 | 0/5 |
| N=C(N)c1ccc(OCCCCCOc2ccc(C(=N)N)cc2)cc1 | 0/6 |

Entry COc1cccc2c1C(=O)c1c(O)c3c(c(O)c1C2=O)C[C@@](O)(C(=O)CO)C[C@@H]3O[C@H]1C[C@H](N)[C@H](O)[C@H](C)O1 , Cessation of beating, number of observations/total well numbers reported as 0/5

----------
# EAD, number of observations/total well numbers annotations
Tested on: hiPSC-CMs (iCell-Cardiomyocytes^2)
protocol_conditions: 3 µM, 72h

Consider the reported EAD, number of observations/total well numbers for these molecules:
| molecule | reported_value |
| --- | --- |
| COc1cc2c(Nc3ccc(Br)cc3F)ncnc2cc1OCC1CCN(C)CC1 | 0/5 |
| C#Cc1cccc(Nc2ncnc3cc(OCCOC)c(OCCOC)cc23)c1 | 0/5 |
| N=C(N)c1ccc(OCCCCCOc2ccc(C(=N)N)cc2)cc1 | 2/6 |
| CC(C)(Sc1cc(C(C)(C)C)c(O)c(C(C)(C)C)c1)Sc1cc(C(C)(C)C)c(O)c(C(C)(C)C)c1 | 0/5 |
| COc1cccc2c1C(=O)c1c(O)c3c(c(O)c1C2=O)C[C@@](O)(C(=O)CO)C[C@@H]3O[C@H]1C[C@H](N)[C@H](O)[C@H](C)O1 | 0/5 |

The record that follows has no EAD, number of observations/total well numbers shown yet.
The measured EAD, number of observations/total well numbers that COc1nc(N)nc2c1ncn2[C@@H]1O[C@H](COP(=O)(N[C@@H](C)C(=O)OCC(C)(C)C)Oc2cccc3ccccc23)[C@@H](O)[C@@]1(C)O (stereo partly drawn) showed for hiPSC-CMs (iCell-Cardiomyocytes^2) is 0/5

----------
System: hiPSC-CMs (iCell-Cardiomyocytes^2)
protocol_conditions: 0.3 µM, 72h
observable: EAD, number of observations/total well numbers

Recorded EAD, number of observations/total well numbers, per entry:
| compound | reported_value |
| --- | --- |
| COc1cccc2c1C(=O)c1c(O)c3c(c(O)c1C2=O)C[C@@](O)(C(=O)CO)C[C@@H]3O[C@H]1C[C@H](N)[C@H](O)[C@H](C)O1 | 0/5 |
| Cc1cn(-c2cc(NC(=O)c3ccc(C)c(Nc4nccc(-c5cccnc5)n4)c3)cc(C(F)(F)F)c2)cn1 | 0/5 |
| COc1cc2c(Nc3ccc(Br)cc3F)ncnc2cc1OCC1CCN(C)CC1 | 0/5 |
| CC(C)(Sc1cc(C(C)(C)C)c(O)c(C(C)(C)C)c1)Sc1cc(C(C)(C)C)c(O)c(C(C)(C)C)c1 | 0/5 |
| C#Cc1cccc(Nc2ncnc3cc(OCCOC)c(OCCOC)cc23)c1 | 0/5 |

The value of EAD, number of observations/total well numbers measured for the compound COc1nc(N)nc2c1ncn2[C@@H]1O[C@H](COP(=O)(N[C@@H](C)C(=O)OCC(C)(C)C)Oc2cccc3ccccc23)[C@@H](O)[C@@]1(C)O (stereo partly shown) turned out to be 0/5

Kindly note the recorded EAD, number of observations/total well numbers for N=C(N)c1ccc(OCCCCCOc2ccc(C(=N)N)cc2)cc1 , which is 0/5

Every entry's value here was drawn from paper PMC10364322.
